I'd appreciate it if you could supply IC50 values for the items below.
Target: purified human Hsp90
Assay: Binding Assay: fluorescence polarization with BODIPY-labeled geldanamycin
Details: BODIPY-GM 10 nM, Hsp90 30 nM
Numbers only, in nM.

Please review the entries below; each comes with its answer.
# compound, study.system, measurement.label, units.symbol, quantitative.readout
data = [
    ("COc1ccc(OC)c(Sc2nc3c(N)ncnc3n2CCc2cccc(C(F)(F)F)c2)c1", "purified human Hsp90", "IC50", "nM", 300),
    ("COc1ccc(OC)c(Sc2nc3c(N)ncnc3n2CCC2CCN(C(=O)OC(C)(C)C)CC2)c1", "purified human Hsp90", "IC50", "nM", 19000),
    ("CCC(Cn1c(Sc2cc(OC)ccc2OC)nc2c(N)ncnc21)c1ccccc1 (centres unmarked)", "purified human Hsp90", "IC50", "nM", 1300),
    ("Nc1ncnc2c1nc(Sc1cc3c(cc1Br)OCO3)n2CCC1CCNCC1", "purified human Hsp90", "IC50", "nM", 470),
    ("Nc1ncnc2c1nc(Sc1ccc3c(c1)OCO3)n2CCc1ccccc1", "purified human Hsp90", "IC50", "nM", 650),
]

Consider the following items and state reported IC50 for each.
1. COc1ccc(OC)c(Sc2nc3c(N)ncnc3n2CCC2CCCCN2S(C)(=O)=O)c1 (centres unmarked)
2. C[C@H](NC(=O)OC(C)(C)C)C(=O)N1CCCC(CCn2c(Sc3cc4c(cc3Br)OCO4)nc3c(N)ncnc32)C1 (some centres unmarked)
3. CC(C)(C)OC(=O)N1CCCC[C@H]1CCn1c(Sc2cc3c(cc2Br)OCO3)nc2c(N)ncnc21
4. COc1ccc(OC)c(Sc2nc3c(N)ncnc3n2CCNC(C)(C)c2ccccn2)c1
5. COc1cccc(Sc2nc3c(N)ncn(CCc4ccccc4)c-3n2)c1
6. Nc1ncnc2c1nc(Sc1cc3c(cc1Br)OCO3)n2CCc1ccc(F)cc1

-- reply
[700, 190, 200, 2300, 4000, 100]

* * *

System: purified human Hsp90
Test: Binding Assay: fluorescence polarization with BODIPY-labeled geldanamycin
Conditions: 5 μM compound, BODIPY-GM 10 nM, Hsp90 30 nM
measurement.label: % Inhibition at 5 μM Compound Concentration (%)
Give bare numbers, in %.

Consider the following items and state reported % Inhibition at 5 μM Compound Concentration for each.
1. Nc1ncnc2c1nc(Sc1cc(OC(F)(F)F)ccc1OC1CCCC1)n2CCc1ccccc1Cl
2. COc1ccc(OC)c(Sc2nc3c(N)ncn(CCc4ccccc4F)c-3n2)c1
3. CC(C)(C)OC(=O)N1CCCC[C@@H]1CCn1cnc(N)c2nc(Sc3cc4c(cc3Br)OCO4)nc1-2

-- reply
25.0
16
0

* * *

I'd appreciate it if you could supply % Inhibition at 5 μM Compound Concentration values for the items below.
System: purified human Hsp90
Assay: Binding Assay: fluorescence polarization with BODIPY-labeled geldanamycin
Settings: 5 μM compound, BODIPY-GM 10 nM, Hsp90 30 nM
Numbers only, in %.

Please review the entries below; each comes with its answer.
# molecule, units.symbol, quantitative.readout
measured = [
    ("COc1ccc(OC)c(Sc2nc3c(N)ncn(CCC4CCNCC4)c-3n2)c1 [Example 467]", "%", 0),
    ("COc1ccc(I)c(Sc2nc3c(N)ncn(CCc4ccccc4)c-3n2)c1 [Example 323]", "%", 0.0),
    ("CC(C)(C)n1nnnc1N1CCC(CCn2cnc(N)c3nc(Sc4cc5c(cc4Br)OCO5)nc2-3)CC1 [Example 615]", "%", 13.00),
]

In the following, a different molecule is considered.
-- ask Form field: % Inhibition at 5 μM Compound Concentration recorded for COc1ccc(Sc2nc3c(N)ncn(CCC4CCN(C(C)=O)CC4)c-3n2)cc1F [Example 568] with purified human Hsp90 (enter value)
-- reply 0.00
